Test system: NCI-H2073
The entries below are paired with their reported GI50.
Give just the number in nM; leave the unit off.

The cases that follow already have their GI50 on record.
# Compound, Test target, Reported value
data = [
    ("COc1cc(N2CCC(N3CCN(CCc4ccc(NC5CCC(=O)NC5=O)cc4)CC3)CC2)c(-c2cnn(C)c2)cc1Nc1ncc(Br)c(Nc2ccc3nccnc3c2NS(C)(=O)=O)n1 (centres unmarked) [Compound 78]", "NCI-H2073", 403),
    ("COc1cc(N2CCN(C(=O)CN3CCN(c4ccc(NC5CCC(=O)NC5=O)cc4)CC3)CC2)c(-c2cnn(C)c2)cc1Nc1ncc(Br)c(Nc2ccc3nccnc3c2NS(C)(=O)=O)n1 (centres unmarked) [Compound 80]", "NCI-H2073", 721),
]

So what's the measured GI50 for this one? COc1cc(N2CCN(C(=O)CN3CCC(c4ccc(NC5CCC(=O)NC5=O)cc4)CC3)CC2)c(-c2cnn(C)c2)cc1Nc1ncc(Br)c(Nc2ccc3nccnc3c2NS(C)(=O)=O)n1 (centres unmarked) [Compound 79]
654

====

Test target: BaF3_ASV (EGFR_A776inASV) (Homo sapiens, UniProt P00533, DUP767-769)
Construct: expressed in transfected cells; host or cells: Ba/F3 (engineered)
Sequence (P00533 with tags, fused parts or gaps DUP767-769): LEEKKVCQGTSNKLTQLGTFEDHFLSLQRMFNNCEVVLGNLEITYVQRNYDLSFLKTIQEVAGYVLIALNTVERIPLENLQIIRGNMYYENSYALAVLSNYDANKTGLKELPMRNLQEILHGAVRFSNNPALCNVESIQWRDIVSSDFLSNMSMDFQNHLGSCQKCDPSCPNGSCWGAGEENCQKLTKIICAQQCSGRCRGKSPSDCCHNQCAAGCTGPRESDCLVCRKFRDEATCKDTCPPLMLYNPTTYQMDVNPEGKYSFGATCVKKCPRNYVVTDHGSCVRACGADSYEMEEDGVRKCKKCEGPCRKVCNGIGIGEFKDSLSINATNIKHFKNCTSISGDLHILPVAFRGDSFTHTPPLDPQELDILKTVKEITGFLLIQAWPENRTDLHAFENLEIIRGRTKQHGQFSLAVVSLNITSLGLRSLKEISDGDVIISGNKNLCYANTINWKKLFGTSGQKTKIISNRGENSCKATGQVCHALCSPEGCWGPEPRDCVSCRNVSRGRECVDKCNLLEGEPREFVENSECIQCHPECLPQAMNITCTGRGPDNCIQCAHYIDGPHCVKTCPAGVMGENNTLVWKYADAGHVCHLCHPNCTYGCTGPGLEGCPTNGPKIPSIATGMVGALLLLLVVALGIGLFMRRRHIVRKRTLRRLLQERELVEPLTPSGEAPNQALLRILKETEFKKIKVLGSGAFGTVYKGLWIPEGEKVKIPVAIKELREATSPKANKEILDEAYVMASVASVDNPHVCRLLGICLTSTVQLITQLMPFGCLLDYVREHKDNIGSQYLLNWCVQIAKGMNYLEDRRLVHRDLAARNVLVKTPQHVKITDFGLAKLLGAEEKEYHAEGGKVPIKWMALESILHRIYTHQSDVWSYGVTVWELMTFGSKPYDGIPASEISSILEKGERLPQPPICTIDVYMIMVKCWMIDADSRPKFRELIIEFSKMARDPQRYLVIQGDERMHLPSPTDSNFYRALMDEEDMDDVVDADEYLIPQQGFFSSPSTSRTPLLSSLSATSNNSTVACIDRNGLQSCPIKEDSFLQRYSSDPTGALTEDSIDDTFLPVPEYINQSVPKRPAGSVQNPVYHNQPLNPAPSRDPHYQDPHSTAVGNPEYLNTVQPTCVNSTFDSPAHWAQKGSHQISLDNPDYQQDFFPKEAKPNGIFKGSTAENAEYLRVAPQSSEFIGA
Experiment: EGFR degradation assay (western blot), BaF3_ASV cells
Assay type: cell-based
Assay conditions: BaF3_ASV cells, compounds 24 h, western blot; read-out: BaF3_ASV DC50
The entries below are paired with their reported DC50.
Give just the number in nM; leave the unit off.

The cases that follow already have their DC50 on record.
# Compound, Units symbol, DC50
measured = [
    ("CCc1cc(Nc2ncc(Br)c(Nc3ccc4nccnc4c3NS(C)(=O)=O)n2)c(OC)cc1N1CCC(N2CCN(CC3CCN(c4ccc5c(c4)C(=O)N(C4CCC(=O)NC4=O)C5=O)CC3)CC2)CC1 (centres unmarked)", "nM", 289),
    ("CCc1cc(Nc2ncc(Br)c(Nc3ccc4nccnc4c3NS(C)(=O)=O)n2)c(OC)cc1N1CCC(N2CCN(CC3CCN(c4ccc5c(c4)CN(C4CCC(=O)NC4=O)C5=O)CC3)CC2)CC1 (centres unmarked)", "nM", 16.6),
    ("CCc1cc(Nc2ncc(Br)c(Nc3ccc4nccnc4c3NS(C)(=O)=O)n2)c(OC)cc1N1CCC(N2CCN(CCc3cccc4c3CN(C3CCC(=O)NC3=O)C4=O)CC2)CC1 (centres unmarked)", "nM", 251),
]

Continue with the compound presented below.
Request: DC50, test system BaF3_ASV (EGFR_A776inASV) (Homo sapiens, UniProt P00533, DUP767-769), entry CCc1cc(Nc2ncc(Br)c(Nc3ccc4nccnc4c3NS(C)(=O)=O)n2)c(OC)cc1N1CCC(N2CCN(C(=O)C3CCN(c4ccc5c(c4)CN(C4CCC(=O)NC4=O)C5=O)CC3)CC2)CC1 (centres unmarked)
20

====

The entries below are paired with their reported DC50.
Test target: BaF3_ASV (EGFR_A776inASV) (Homo sapiens, UniProt P00533, DUP767-769)
Construct: expressed in transfected cells; host or cells: Ba/F3 (engineered)
Experiment: EGFR degradation assay (western blot), BaF3_ASV cells
Type: cell-based
Assay conditions: BaF3_ASV cells, compounds 24 h, western blot; read-out: BaF3_ASV DC50
Give just the number in nM; leave the unit off.

# Compound, Units symbol, Reported value
measured = [
    ("CCc1cc(Nc2ncc(Br)c(Nc3ccc4nccnc4c3NS(C)(=O)=O)n2)c(OC)cc1N1CCC(N2CCN(c3ccc4c(c3)CN([C@H]3CCC(=O)NC3=O)C4=O)CC2)CC1 [Compound 38]", "nM", 35.1),
]

Request: DC50, test system BaF3_ASV (EGFR_A776inASV) (Homo sapiens, UniProt P00533, DUP767-769), entry CCc1cc(Nc2ncc(Br)c(Nc3ccc4nccnc4c3NS(C)(=O)=O)n2)c(OC)cc1N1CCC(N2CCC(N3CCN(c4ccc5c(c4)CN([C@H]4CCC(=O)NC4=O)C5=O)CC3)CC2)CC1 [Compound 36]
102

Param item: CCc1cc(Nc2ncc(Br)c(Nc3ccc4nccnc4c3NS(C)(=O)=O)n2)c(OC)cc1N1CCC(CN2CC3(CCN(c4ccc5c(c4)CN(C4CCC(=O)NC4=O)C5=O)CC3)C2)CC1 (centres unmarked) [Compound 58]
23

Param item: CCc1cc(Nc2ncc(Br)c(Nc3ccc4nccnc4c3NS(C)(=O)=O)n2)c(OC)cc1N1CCC(N2CC[C@@H](CN3CCN(c4ccc5c(c4)CN([C@H]4CCC(=O)NC4=O)C5=O)CC3)C2)CC1 [Compound 92]
24.5

Param item: CCc1cc(Nc2ncc(Br)c(Nc3ccc4nccnc4c3NS(C)(=O)=O)n2)c(OC)cc1N1CCC(CN2CCC3(CC2)CN(c2ccc4c(c2)CN(C2CCC(=O)NC2=O)C4=O)C3)CC1 (centres unmarked) [Compound 56]
18

====

// endpoint log10 GI50 / system HCC827
Please interpret these as log10 of GI50 where GI50 is in nM.

The cases that follow already have their log10 GI50 on record.
# Compound, Test target, Measured endpoint, Reported value
measured = [
    ("COc1cc(N2CCC(N3CCN(CCc4cc(F)c(C5CCC(=O)NC5=O)c(F)c4)CC3)CC2)c(-c2cnn(C)c2)cc1Nc1ncc(Br)c(Nc2ccc3nccnc3c2NS(C)(=O)=O)n1 (stereo not shown) [Compound 70]", "HCC827", "log10 GI50", -0.02),
    ("CCn1c(=O)n(C2CCC(=O)NC2=O)c2cccc(CCN3CCN(C4CCN(c5cc(OC)c(Nc6ncc(Br)c(Nc7ccc8nccnc8c7NS(C)(=O)=O)n6)cc5-c5cnn(C)c5)CC4)CC3)c21 (stereo not shown) [Compound 28]", "HCC827", "log10 GI50", -0.28),
    ("COc1cc(N2CCC(N3CCN(c4ccc5c(c4)C(=O)N(C4CCC(=O)NC4=O)C5=O)CC3)CC2)c(-c2cnn(C)c2)cc1Nc1ncc(Br)c(Nc2ccc3nccnc3c2NS(C)(=O)=O)n1 (stereo not shown) [Compound 82]", "HCC827", "log10 GI50", 0.45),
    ("COc1cc(N2CCC(CN3CCN(c4ccc5c(c4)C(=O)N(C4CCC(=O)NC4=O)C5=O)CC3)CC2)c(-c2cnn(C)c2)cc1Nc1ncc(Br)c(Nc2ccc3nccnc3c2NS(C)(=O)=O)n1 (stereo not shown) [Compound 83]", "HCC827", "log10 GI50", 0.74),
    ("COc1cc(N2CCN(C(=O)CN3CCN(c4ccc(NC5CCC(=O)NC5=O)cc4)CC3)CC2)c(-c2cnn(C)c2)cc1Nc1ncc(Br)c(Nc2ccc3nccnc3c2NS(C)(=O)=O)n1 (stereo not shown) [Compound 80]", "HCC827", "log10 GI50", 0.83),
    ("COc1cc(N2CCN(C(=O)CN3CCC(c4ccc(NC5CCC(=O)NC5=O)cc4)CC3)CC2)c(-c2cnn(C)c2)cc1Nc1ncc(Br)c(Nc2ccc3nccnc3c2NS(C)(=O)=O)n1 (stereo not shown) [Compound 79]", "HCC827", "log10 GI50", -0.66),
    ("COc1cc(N2CCN(CC3CCN(c4ccc5c(c4)C(=O)N(C4CCC(=O)NC4=O)C5=O)CC3)CC2)c(-c2cnn(C)c2)cc1Nc1ncc(Br)c(Nc2ccc3nccnc3c2NS(C)(=O)=O)n1 (stereo not shown) [Compound 84]", "HCC827", "log10 GI50", 0.07),
    ("COc1cc(N2CCC(N3CC4(CN(C(=O)CC5(O)CCN(c6ccc(NC7CCC(=O)NC7=O)cc6F)CC5)C4)C3)CC2)c(-c2cnn(C)c2)cc1Nc1ncc(Br)c(Nc2ccc3nccnc3c2NS(C)(=O)=O)n1 (stereo not shown) [Compound 81]", "HCC827", "log10 GI50", 0.38),
    ("COc1cc(N2CCC(N3CCN(CC4CCN(c5ccc6c(c5)C(=O)N(C5CCC(=O)NC5=O)C6=O)CC4)CC3)CC2)c(-c2cnn(C)c2)cc1Nc1ncc(Br)c(Nc2ccc3nccnc3c2NS(C)(=O)=O)n1 (stereo not shown) [Compound 85]", "HCC827", "log10 GI50", 0.43),
]

Continue with the compound presented below.
So what's the measured log10 GI50 for this one? COc1cc(N2CCC(N3CCN(CCc4ccc(NC5CCC(=O)NC5=O)cc4)CC3)CC2)c(-c2cnn(C)c2)cc1Nc1ncc(Br)c(Nc2ccc3nccnc3c2NS(C)(=O)=O)n1 (stereo not shown) [Compound 78]
0.00

====

The entries below are paired with their reported DC50.
Test target: BaF3_ASV (EGFR_A776inASV) (Homo sapiens, UniProt P00533, DUP767-769)
Construct: expressed in transfected cells; host or cells: Ba/F3 (engineered)
Experiment: EGFR degradation assay (western blot), BaF3_ASV cells
Format: cell-based
Assay conditions: BaF3_ASV cells, compounds 24 h, western blot; read-out: BaF3_ASV DC50
Give just the number in nM; leave the unit off.

The cases that follow already have their DC50 on record.
# Molecule, Reported value
records = [
    ("CCc1cc(Nc2ncc(Br)c(Nc3ccc4nccnc4c3NS(C)(=O)=O)n2)c(OC)cc1N1CCC2(CC1)CN(CC1CCN(c3ccc4c(c3)CN(C3CCC(=O)NC3=O)C4=O)CC1)C2 (centres unmarked) [Compound 40]", 93.8),
    ("CCc1cc(Nc2ncc(Br)c(Nc3ccc4nccnc4c3NS(C)(=O)=O)n2)c(OC)cc1N1CCC(N2CCN(C3CC4(CCN(c5ccc6c(c5)CN(C5CCC(=O)NC5=O)C6=O)CC4)C3)CC2)CC1 (centres unmarked) [Compound 48]", 23.7),
    ("CCc1cc(Nc2ncc(Br)c(Nc3ccc4nccnc4c3NS(C)(=O)=O)n2)c(OC)cc1N1CCC(N2CCN(CCc3cccc4c3n(CC)c(=O)n4C3CCC(=O)NC3=O)CC2)CC1 (centres unmarked) [Compound 11]", 22.4),
]

Continue with the molecule presented below.
Request: DC50, test system BaF3_ASV (EGFR_A776inASV) (Homo sapiens, UniProt P00533, DUP767-769), entry CCc1cc(Nc2ncc(Br)c(Nc3ccc4nccnc4c3NS(C)(=O)=O)n2)c(OC)cc1N1CCC(N2CC(CN3CCN(c4ccc5c(c4)CN([C@H]4CCC(=O)NC4=O)C5=O)CC3)C2)CC1 [Compound 62]
75.2
